Target: ENZ3 SEQ ID NO:3 (Chitinophaga pinensis, UniProt C7PLM6)
Construct: His6 (hexahistidine, inserted after the initial methionine) (N); made in house; host or cells: E. coli BL21(DE3) plysE
Sequence (C7PLM6 whole entry): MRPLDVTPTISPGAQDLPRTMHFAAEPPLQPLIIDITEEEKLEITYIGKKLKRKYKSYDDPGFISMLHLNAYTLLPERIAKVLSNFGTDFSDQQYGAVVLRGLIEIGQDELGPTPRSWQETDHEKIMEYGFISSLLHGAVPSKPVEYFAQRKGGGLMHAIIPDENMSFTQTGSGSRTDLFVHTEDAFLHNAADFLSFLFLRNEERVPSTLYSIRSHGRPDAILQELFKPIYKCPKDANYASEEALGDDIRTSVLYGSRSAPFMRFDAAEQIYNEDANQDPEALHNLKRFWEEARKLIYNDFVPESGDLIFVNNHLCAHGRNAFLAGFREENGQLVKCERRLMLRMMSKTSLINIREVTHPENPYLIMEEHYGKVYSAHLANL
Type: biochemical
Conditions: enzyme 0.08 mg/mL, molar ratio α-ketoglutarate/substrate 15/10, Hepes buffer 50 mM pH 7,5, Mohr's salt 1mM, without sodium ascorbate, room temperature, three hours
measure: potential conversions of the substrates, ENZ3 SEQ ID NO:3

- N[C@H]1CCCCNC1=O [L-(-)-α-Amino-ε-caprolactam]: negative
- CCCCCC(N)C(=O)O (centres unmarked): negative
- NC[C@H](O)CC[C@H](N)C(=O)O [(5R)- hydroxy-L-lysine]: positive
- NCCCC[C@H](N)C(=O)O: positive
- CC(=O)N[C@@H](CCCN)C(=O)O: negative
- COC(=O)[C@@H](N)CCCCN: negative
- COC(=O)[C@@H](N)CCCN: negative
- CC(=O)N[C@@H](CCCCN)C(=O)O: negative
- NCCCC[C@@H](N)C(=O)O: negative
- NC(=O)NCCC[C@H](N)C(=O)O: negative

Request: Query: potential conversions of the substrates, ENZ3 SEQ ID NO:3; subject: NC(CCCC(=O)O)C(=O)O (centres unmarked)
Response: negative

Request: GET /values?readout=potential conversions of the substrates, ENZ3 SEQ ID NO:3&item= NCCSC[C@H](N)C(=O)O
Response: positive

Request: Return reported potential conversions of the substrates, ENZ3 SEQ ID NO:3; argument: NCCCC[C@H](NC(=O)[C@@H](N)CCCCN)C(=O)O
Response: negative

Request: Looking for the measured potential conversions of the substrates, ENZ3 SEQ ID NO:3 of NCCC[C@H](N)CC(=O)O , can you help?
Response: negative

Request: For the compound NCCC[C@H](O)[C@H](N)C(=O)O [(3S)- hydroxy-L-lysine] , what potential conversions of the substrates, ENZ3 SEQ ID NO:3 is on record?
Response: positive

Request: Name the reported potential conversions of the substrates, ENZ3 SEQ ID NO:3 value associated with the compound CNCCCC[C@H](N)C(=O)O
Response: negative

Request: # input compound: NCCCCCN ; wanted: its potential conversions of the substrates, ENZ3 SEQ ID NO:3
Response: negative

Request: Data request, read-out potential conversions of the substrates, ENZ3 SEQ ID NO:3, for COC(=O)[C@@H](N)CCCNC(=N)N
Response: negative

Request: Request the reported potential conversions of the substrates, ENZ3 SEQ ID NO:3 associated with CC(=O)N[C@@H](CCCNC(=N)N)C(=O)O
Response: negative

====

Target: ENZ2 SEQ ID NO:2 (Flavobacterium johnsoniae)
Construct: His6 (hexahistidine, inserted after the initial methionine) (N); made in house; host or cells: E. coli BL21(DE3) plysE
Sequence (A5FF23 whole entry): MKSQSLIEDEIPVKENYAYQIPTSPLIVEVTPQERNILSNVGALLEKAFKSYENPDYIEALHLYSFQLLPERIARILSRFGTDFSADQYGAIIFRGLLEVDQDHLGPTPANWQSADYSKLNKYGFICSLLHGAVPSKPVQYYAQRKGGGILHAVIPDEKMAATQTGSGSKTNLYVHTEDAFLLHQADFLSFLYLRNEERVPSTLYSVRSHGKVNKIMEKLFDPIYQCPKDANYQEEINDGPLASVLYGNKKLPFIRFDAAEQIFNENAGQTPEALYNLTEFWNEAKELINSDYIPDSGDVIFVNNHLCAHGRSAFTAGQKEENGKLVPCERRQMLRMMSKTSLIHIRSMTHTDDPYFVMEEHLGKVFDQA
Type: biochemical
Conditions: enzyme 0.08 mg/mL, molar ratio α-ketoglutarate/substrate 15/10, Hepes buffer 50 mM pH 7,5, Mohr's salt 1mM, without sodium ascorbate, room temperature, three hours
measure: potential conversions of the substrates, ENZ2 SEQ ID NO:2

Examples with answers:
- NCCC[C@H](O)[C@H](N)C(=O)O [(3S)- hydroxy-L-lysine]: positive
- CC(=O)N[C@@H](CCCCN)C(=O)O: negative
- COC(=O)[C@@H](N)CCCNC(=N)N: negative
- CC(=O)N[C@@H](CCCN)C(=O)O: negative
- NC(=O)NCCC[C@H](N)C(=O)O: negative
- COC(=O)[C@@H](N)CCCCN: negative
- N=C(N)NCCC[C@@H](N)C(=O)O: negative
- NC[C@H](O)CC[C@H](N)C(=O)O [(5R)- hydroxy-L-lysine]: positive

Request: Bench note: what potential conversions of the substrates, ENZ2 SEQ ID NO:2 did NCCSC[C@H](N)C(=O)O show?
Response: positive

Request: Tell me the measured potential conversions of the substrates, ENZ2 SEQ ID NO:2 of NCCCCCN , please.
Response: negative

====

Target: ENZ2 SEQ ID NO:2 (Flavobacterium johnsoniae)
Construct: His6 (hexahistidine, inserted after the initial methionine) (N); made in house; host or cells: E. coli BL21(DE3) plysE
Format: biochemical
Details: enzyme 0.08 mg/mL, molar ratio α-ketoglutarate/substrate 15/10, Hepes buffer 50 mM pH 7,5, Mohr's salt 1mM, without sodium ascorbate, room temperature, three hours
measure: potential conversions of the substrates, ENZ2 SEQ ID NO:2

For orientation, consider the following solved cases.
* NCCC[C@H](N)CC(=O)O [β-L-lysine] | negative
* COC(=O)[C@@H](N)CCCN [L-ornithine methyl ester] | negative
* NCCCC[C@H](NC(=O)[C@@H](N)CCCCN)C(=O)O [L-Lysil-L-lysine] | negative
* N=C(N)NCCC[C@H](N)C(=O)O [L-arginine] | negative
* C[N+](C)(C)CCCC[C@H](N)C(=O)O [Nε-Me3-L-lysine] | negative

Request: Request the reported potential conversions of the substrates, ENZ2 SEQ ID NO:2 associated with N[C@H]1CCCCNC1=O [L-(-)-α-Amino-ε-caprolactam]
Response: negative

Request: Return reported potential conversions of the substrates, ENZ2 SEQ ID NO:2; argument: CCCCCC(N)C(=O)O (stereo not shown) [2-aminoheptanoic acid]
Response: negative

This collection of values is drawn from patent EP2876156A1.
